B1: STX5 (parent)
chain: ESTIVELGSIFQQLAHMVKEQEET

variants of: B1; experiment: protein stability index of a GFP-peptide fusion (GPS, HEK-293T) (PSI 1-6); higher = more stable; conditions: c terminus: a fixed tail appended;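 further: lentivirally expressed fusions sorted by FACS into six bins by GFP to DsRed ratio, PSI derived from sequencing read proportions per bin multiplied by bin number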
resultType: protein stability index

Below: 8 variants and their reported protein stability index.
What measured protein stability index goes with `M17K` ?
2.06

What measured protein stability index goes with `Q21W` ?
3.33

What measured protein stability index goes with `I10L` ?
2.63

What measured protein stability index goes with `I4Q` ?
3.69

What measured protein stability index goes with `T3K` ?
2.83

What measured protein stability index goes with `I10R` ?
3.9

What measured protein stability index goes with `V5W` ?
2.22

What measured protein stability index goes with `K19D` ?
4.35

***
What measured protein stability index goes with `E6Y` ?
1.81

What measured protein stability index goes with `F11D` ?
5.77
